molecular target: T1, human CD33 antigen (human, UniProt P20138 18-259, limits assumed); experiment: SPR (Biacore T200), 37 C; KD at 10 uM MTX / KD at 0 uM MTX
T1 construct: whole entry named; also called Siglec-3
T1 sequence (P20138 18-259 limits assumed): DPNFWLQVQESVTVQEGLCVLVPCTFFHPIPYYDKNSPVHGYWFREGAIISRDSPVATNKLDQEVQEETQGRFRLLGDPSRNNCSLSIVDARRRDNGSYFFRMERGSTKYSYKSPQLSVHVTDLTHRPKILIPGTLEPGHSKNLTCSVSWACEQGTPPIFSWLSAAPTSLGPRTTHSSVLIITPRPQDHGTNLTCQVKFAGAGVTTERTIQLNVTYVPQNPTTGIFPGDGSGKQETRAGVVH
reported_property: Ratio: KD with MTX / KD without MTX
Answer with a bare number; do not write a unit.

Please supply the value of reported Ratio: KD with MTX / KD without MTX for the item P02_D08 scFv-Fc fusion (scFv, V domains shown, Tested as scFv-Fc fusion) VH: QVQLVESGGGLVQAGGSLRLSCAASRRSSRSWAMHWVRQAPGKGLEWVAVISYDGRLKYYADSVKGRFTISRDNAEYLVYLQMNSLRAEDTAVYYCAAERGDGLDGNVGLDIWGQGTLVTVSS VL: DIQMTQSPSSLSASVGDRVTITCRASQSISKYLNWYQQKPGKAPKLLIYGASTLQSGVPSRFSGSGSGTDFTLTISSLQPEDFATYYCQQSYSSGTFGQGTKVEIK
7.1

Please supply the value of reported Ratio: KD with MTX / KD without MTX for the item P04_C09 scFv-Fc fusion (scFv, V domains shown, Tested as scFv-Fc fusion) VH: QVQLVESGGGLVQAGGSLRLSCAASRRSSRSWAMHWVRQAPGKGLEWVAVISYDGRLKYYADSVKGRFTISRDNAEYLVYLQMNSLRAEDTAVYYCAAEANESDSGGIDVWGQGTLVTVSS VL: DIQMTQSPSSLSASVGDRVTITCRASQTIGGYLNWYQQKPGKAPKLLIYAASSLQSGVPSRFSGSGSGTDFTLTISSLQPEDFATYYCQQGYSSGAFGQGTKVEIK
17.7

Numbers sourced from patent US20230192839A1.
